Reference source for all entries: patent US12116358B2

TARGET_OR_TEST_SYSTEM: SETD2(1434-1711) (Homo sapiens)
Construct: SETD2 (1434-1711) Assay; catalogue N/A
TEST_DESCRIPTION: SETD2 (1434-1711) assay
Assay type: biochemical
MEASUREMENT_CONDITIONS: read-out: SETD2 (1434-1711)
Note to self: class = bucket of IC50, per lower band (below 60 nM), central band (60 nM to below 1000 nM), upper band (1000 nM or more)

1. Cc1cccnc1C(C)NC(=O)c1cc2cccc(C)c2[nH]1 (stereo not drawn) | upper band
2. Cc1ccc(F)c2cc(C(=O)Nc3cccc(N4C[C@@H](O)[C@H](N(C)C)C4)c3)[nH]c12 | lower band
3. Cc1cccnc1C(NC(=O)c1cc2cccc(C(C)C)c2[nH]1)C1CC1 (stereo not drawn) | upper band

Consider the additional molecule presented here.
INPUT: Lab log: COC(=O)C[C@H](NC(=O)c1cc2cccc(C)c2[nH]1)c1cccnc1 — assign IC50 category
OUTPUT: upper band

###

TARGET_OR_TEST_SYSTEM: SETD2(1434-1711) (Homo sapiens, UniProt Q9BYW2)
Construct: SETD2 (1434-1711) Assay; catalogue N/A
TEST_DESCRIPTION: SETD2 (1434-1711) assay
Type: biochemical
MEASUREMENT_CONDITIONS: read-out: SETD2 (1434-1711)
Simple rule here: IC50 less than 700 nM is yes, otherwise no.

See these solved cases before continuing.
1. Cc1ccc(F)c2cc(C(=O)Nc3cccc(N4C5CCC4CN(C)C5)c3)[nH]c12 | yes
2. CCN([C@@H]1CCN([C@H]2CCC[C@@H](NC(=O)c3cc4c(F)ccc(C)c4[nH]3)C2)C1)S(C)(=O)=O | yes
3. CCN(C1CCN(C2CCCC(NC(=O)c3cc4c(F)ccc(C)c4[nH]3)C2)C1)S(C)(=O)=O (centres unmarked) [compound 1132] | no
4. CC(=O)N1CC2CN(C3CCCC(NC(=O)c4cc5c(F)ccc(C)c5[nH]4)C3)CC2C1 (centres unmarked) [compound 1178] | no
5. Cc1ccc(F)c2cc(C(=O)Nc3cccc(N4CC5CC(C4)O5)c3)[nH]c12 | yes
6. Cc1cccc2cc(C(=O)N[C@@H](CO)Cc3ccccc3)[nH]c12 | no

Consider the additional compound presented here.
INPUT: Below 700 nM on IC50? Entry Cc1ccc(F)c2cc(C(=O)NC3COCC(c4cncnc4)C3)[nH]c12 (centres unmarked)
OUTPUT: no

###

TARGET_OR_TEST_SYSTEM: SETD2(1434-1711) (Homo sapiens, UniProt Q9BYW2)
Construct: SETD2 (1434-1711) Assay; catalogue N/A
TEST_DESCRIPTION: SETD2 (1434-1711) assay
Format: biochemical
MEASUREMENT_CONDITIONS: read-out: SETD2 (1434-1711)
VALUE_TYPE: pIC50
Give bare numbers, as −log10 of the molar value.

Examples with answers:
1. Cc1ccc(F)c2cc(C(=O)Nc3cccc(-c4cn5ccccc5n4)c3)[nH]c12 [compound 286] | 7.00
2. Cc1ccc(F)c2cc(C(=O)Nc3cccc(-c4ccccn4)c3)[nH]c12 [compound 285] | 7.40
3. Cc1cccc2cc(C(=O)Nc3ccc4cncnc4c3)[nH]c12 [compound 466] | 5.72

INPUT: // fetch pIC50 given entry Cc1ccc(F)c2cc(C(=O)Nc3cc(Cl)cc(N4CCN(C)CC4)c3)[nH]c12 [compound 91]
OUTPUT: 8.00

###

TARGET_OR_TEST_SYSTEM: SETD2(1434-1711) (Homo sapiens, UniProt Q9BYW2)
Construct: SETD2 (1434-1711) Assay; catalogue N/A
TEST_DESCRIPTION: SETD2 (1434-1711) assay
Format: biochemical
MEASUREMENT_CONDITIONS: read-out: SETD2 (1434-1711)
VALUE_TYPE: pIC50
Answers are plain numbers, as −log10 of the molar value.

Examples with answers:
1. NCCC(=O)N[C@H]1CC[C@H](NC(=O)c2cc3cccc(Cl)c3[nH]2)CC1 | 4.20
2. Cc1cccc2cc(C(=O)NC3CC4CCC(C3)C4NC(=O)CCN)[nH]c12 (stereo not shown) | 4.73

Consider now this further molecule.
INPUT: // fetch pIC50 given entry Cc1ccc(F)c2cc(C(=O)NC3CCCC(N4CCC(N(C)C(=O)CO)C4)C3)[nH]c12 (stereo not shown) [compound 983]
OUTPUT: 7.70

###

TARGET_OR_TEST_SYSTEM: SETD2(1434-1711) (Homo sapiens)
Construct: SETD2 (1434-1711) Assay; catalogue N/A
TEST_DESCRIPTION: SETD2 (1434-1711) assay
Assay type: biochemical
MEASUREMENT_CONDITIONS: read-out: SETD2 (1434-1711)
VALUE_TYPE: pIC50
Answers are plain numbers, as −log10 of the molar value.

Hey, quick one: what's pIC50 for each of these?
1. Cc1cccc2cc(C(=O)Nc3ccc4ccc(C(=O)N5CCN(C)CC5)cc4c3)[nH]c12 [compound 448]
2. CCN(CC)CCC(=O)N[C@H]1CC[C@H](NC(=O)c2cc3cccc(C)c3[nH]2)CC1 [compound 589]
3. Cc1cc(C(=O)N[C@@H]2CC[C@H]2N)cnc1C(NC(=O)c1cc2cccc(C)c2[nH]1)C1CC1 (stereo partly shown) [compound 455]
4. Cc1ccc(F)c2cc(C(=O)NC3CCCC(N4CCC(N(C)C(=O)C(C)(C)O)C4)C3)[nH]c12 (stereo not shown) [compound 1052]

OUTPUT:
1: 6.05; 2: 4.36; 3: 6.40; 4: 7.70

###

TARGET_OR_TEST_SYSTEM: SETD2(1434-1711) (Homo sapiens)
Construct: SETD2 (1434-1711) Assay; catalogue N/A
TEST_DESCRIPTION: SETD2 (1434-1711) assay
Format: biochemical
VALUE_TYPE: pIC50
Give bare numbers, as −log10 of the molar value.

INPUT: // fetch pIC50 given entry Cc1ccc(F)c2cc(C(=O)Nc3cccc(N4CCN(CCO)CC4)c3)[nH]c12
OUTPUT: 7.10

###

TARGET_OR_TEST_SYSTEM: SETD2(1434-1711) (Homo sapiens)
Construct: SETD2 (1434-1711) Assay; catalogue N/A
Sequence (Q9BYW2 1434-1711): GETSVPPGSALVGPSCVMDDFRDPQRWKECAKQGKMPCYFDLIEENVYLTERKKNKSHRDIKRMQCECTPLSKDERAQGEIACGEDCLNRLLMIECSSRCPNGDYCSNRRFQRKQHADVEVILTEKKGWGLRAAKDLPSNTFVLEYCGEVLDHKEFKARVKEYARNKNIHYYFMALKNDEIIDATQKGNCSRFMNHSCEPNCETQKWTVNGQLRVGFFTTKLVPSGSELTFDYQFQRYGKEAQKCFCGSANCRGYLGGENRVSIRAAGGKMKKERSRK
TEST_DESCRIPTION: SETD2 (1434-1711) assay
Format: biochemical
MEASUREMENT_CONDITIONS: read-out: SETD2 (1434-1711)
pIC50: −log10 of the molar value.
Tick y if pIC50 is 6 or greater. Tick n if pIC50 is less than 6.

See these solved cases before continuing.
1) CCOC(=O)[C@@H]1CCCC[C@H]1NC(=O)c1cc2cccc(C)c2[nH]1 | n
2) Cc1cc(C(=O)N[C@H]2CC[C@H](N)CC2)cnc1C(NC(=O)c1cc2cccc(C)c2[nH]1)C1CC1 (some centres unmarked) | y
3) Cc1ccc(F)c2cc(C(=O)Nc3cccc(N4CCN(C)CC4CO)c3)[nH]c12 (centres unmarked) | y
4) Cc1ccc(F)c2cc(C(=O)N[C@@H]3CCC[C@@H](c4cccnc4)C3)[nH]c12 | n
5) Cc1cccnc1C(NC(=O)c1cc2c(CO)ccc(C)c2[nH]1)C1CC1 (centres unmarked) | n
6) Cc1c(C(=O)N[C@H]2CC[C@H](N)CC2)[nH]c2c(C)cccc12 | n
7) Cc1ccc(F)c2cc(C(=O)NC3CCCC(N4CCN(C5CC5)C(=O)C4)C3)[nH]c12 (centres unmarked) [compound 978] | n

INPUT: Does Cc1cc(Cn2ccnc2)cnc1C(NC(=O)c1cc2cccc(C)c2[nH]1)C1CC1 (centres unmarked) have a reported pIC50 of at least 6?
OUTPUT: y

###

So I've got a bunch of molecules here, and I need their IC50 values.
TARGET_OR_TEST_SYSTEM: SETD2(1434-1711) (Homo sapiens)
Construct: SETD2 (1434-1711) Assay; catalogue N/A
TEST_DESCRIPTION: SETD2 (1434-1711) assay
Format: biochemical
MEASUREMENT_CONDITIONS: read-out: SETD2 (1434-1711)

Examples with answers:
1) CCN(CC)C1CCc2cc(NC(=O)c3cc4cccc(C)c4[nH]3)ccc2C1 (stereo not shown) [compound 537] | 900 nM
2) Cc1ccc(F)c2cc(C(=O)Nc3nnc(C4CCN(C)CC4)o3)[nH]c12 [compound 557] | > 10000 nM
3) Cc1ccc(F)c2cc(C(=O)NC3CCCC(N4CCN5C(=O)NCC5C4)C3)[nH]c12 (stereo not shown) [compound 1084] | 100 nM

Consider now this further molecule.
INPUT: Report its IC50 with SETD2(1434-1711) (Homo sapiens) as the test system: COCCN(C)C1CCN(c2cccc(NC(=O)c3cc4c(F)ccc(C)c4[nH]3)c2)C1 (stereo not shown) [compound 156]
OUTPUT: 30 nM
